# key: entry, value: IC50
# subject.of.test: human MRGPRD (Homo sapiens, UniProt Q8TDS7)
# Sequence (Q8TDS7 whole entry): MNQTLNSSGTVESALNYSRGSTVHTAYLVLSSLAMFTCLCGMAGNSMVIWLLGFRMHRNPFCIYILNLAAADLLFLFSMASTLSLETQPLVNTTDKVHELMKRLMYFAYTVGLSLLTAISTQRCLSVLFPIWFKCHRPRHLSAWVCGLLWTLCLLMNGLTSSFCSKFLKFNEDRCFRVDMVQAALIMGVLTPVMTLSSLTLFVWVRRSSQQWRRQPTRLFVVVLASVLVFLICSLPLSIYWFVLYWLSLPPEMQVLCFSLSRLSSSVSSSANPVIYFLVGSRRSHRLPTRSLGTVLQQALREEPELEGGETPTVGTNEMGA
# assay.explanation: MRGPRD antagonist activity, IP-One HTRF assay in CHO cells stably expressing human MRGPRD (versus 100 μM β-Alanine agonist)

Use the examples below as a reference point.
> print(dat)
                                   molecule  measured.result
1  COc1cccc(-c2nc(C3CCCN(C(=O)NC4CC4)C3)n3ccccc23)c1 (stereo not drawn)        > 3000 nM
2  COc1cccc(-c2nc([C@@H]3CCCN(C(=O)Nc4ccc(CC#N)cc4)C3)n3ccccc23)c1         < 100 nM
3  CNC(=O)N1CCC[C@@H]1c1nc(-c2cccc(OC)c2)c2ccccn12        > 3000 nM
4  COc1cccc(-c2nc([C@@H]3CCCN(C(=O)Nc4ccccc4F)C3)n3ccccc23)c1         < 100 nM
5  COc1cccc(-c2nc([C@@H]3CCCN(S(=O)(=O)c4cccc(F)c4)C3)n3ccccc23)c1    100 to 500 nM
6  COc1cccc(-c2nc([C@@H]3CCCN(C(=O)Nc4ccc5nc(C(C)(C)C)[nH]c5c4)C3)n3ccccc23)c1         < 100 nM

human MRGPRD (Homo sapiens, UniProt Q8TDS7) / IC50 / COc1cccc(-c2nc(C3CCCN(C(=O)Nc4ccccc4N(C)C)C3)n3ccccc23)c1 (stereo not drawn) : value? 500 to 1000 nM

human MRGPRD (Homo sapiens, UniProt Q8TDS7) / IC50 / `COc1cccc(-c2nc([C@@H]3CCCN(C(=O)Nc4ccc(-c5ccccc5)cc4)C3)n3ccccc23)c1` : value? 1000 to 3000 nM

human MRGPRD (Homo sapiens, UniProt Q8TDS7) / IC50 / COc1cccc(-c2nc([C@@H]3CCCN(C(=O)NC4CCc5ccccc5C4)C3)n3ccccc23)c1 (stereo partly drawn) : value? 100 to 500 nM

human MRGPRD (Homo sapiens, UniProt Q8TDS7) / IC50 / `CN(C)c1ccc(NC(=O)N2CCC[C@@H](c3nc(-c4ccc(Cl)cc4)c4ccccn34)C2)cc1` : value? 500 to 1000 nM

human MRGPRD (Homo sapiens, UniProt Q8TDS7) / IC50 / `COc1cccc(-c2nc(C3CN(C(=O)Nc4ccc(N(C)C)cc4)C3)n3ccccc23)c1` : value? > 3000 nM

human MRGPRD (Homo sapiens, UniProt Q8TDS7) / IC50 / CCc1ccc(NC(=O)N2CCCC(c3nc(-c4cccc(OC)c4)c4ccccn34)C2)cc1 (stereo not drawn) : value? 100 to 500 nM

human MRGPRD (Homo sapiens, UniProt Q8TDS7) / IC50 / `COc1cccc(-c2nc([C@@H]3CCCN(C(=O)Nc4ccn(C)n4)C3)n3ccccc23)c1` : value? < 100 nM

human MRGPRD (Homo sapiens, UniProt Q8TDS7) / IC50 / COc1cccc(-c2nc(C3CCCN(C(=O)Cc4ccccc4F)C3)n3ccccc23)c1 (stereo not drawn) : value? 100 to 500 nM

human MRGPRD (Homo sapiens, UniProt Q8TDS7) / IC50 / `COc1cccc(-c2nc([C@@H]3CCCN(C(=O)Nc4ccc(C(F)(F)F)cc4)C3)n3ccccc23)c1` : value? 500 to 1000 nM
